tested on: Caco-2; test: Induction of human ApoA-1 gene expression in human Caco-2 cells co-transfected with luc-beta-galactosidase after 48 hrs assessed as luciferase activity by luminometer relative to resveratrol; assay type: functional
Mark label 0 for fold change (FC) values under 0.7, and label 1 for everything at or above.

>>> class_name("O=C(Nc1ccc(O)cc1)c1ccccc1")
"label 0"
>>> class_name("O=C(Nc1ccccc1)c1ccc(O)cc1")
"label 0"
>>> class_name("O=[N+]([O-])c1cc(O)ccc1/C=C/c1ccc(O)cc1")
"label 1"
>>> class_name("COc1cc(O)ccc1/C=C/c1ccc(O)cc1")
"label 1"
>>> class_name("Oc1ccc(CCc2ccc(O)cc2)cc1")
"label 1"
>>> class_name("CC(=O)Nc1cc(O)ccc1/C=C/c1ccc(O)cc1")
"label 0"
>>> class_name("CCOC(=O)c1cc(/C=C/c2ccc(O)cc2)ccc1O")
"label 0"
>>> class_name("Oc1ccc(-c2nnc(-c3cccc(O)c3)o2)cc1")
"label 1"
>>> class_name("Oc1ccc(-c2nnc(-c3ccccc3)o2)cc1")
"label 0"
>>> class_name("OCc1cc(O)ccc1/C=C/c1ccc(O)cc1")
"label 0"
>>> class_name("Oc1cccc(-c2nnc(-c3ccccc3)o2)c1")
"label 0"
>>> class_name("OCc1cccc(-c2nnc(-c3ccc(O)cc3)o2)c1")
"label 0"
>>> class_name("O=C(O)c1cc(/C=C/c2ccc(O)cc2)ccc1O")
"label 0"
>>> class_name("Oc1ccc(/N=N/c2ccc(O)cc2)cc1")
"label 1"
